# TARGET ENTITY: Lyngbya sp. LynD heterocyclase, wild type, SEQ ID NO: 1
# PROTOCOL DETAILS: ITC nucleotide binding (ATP/AMP) to LynD
# Set-up: species or system Lyngbya sp. PCC 8106
# CONDITION DETAILS: 25° C., pH 7.4, 5 mM MgCl2, one-site model, stoichiometry set to 1, read-out: Nucleotide KD (AMP)
OBSERVED PROPERTY: Kd
Could you kindly put the unit after your number?

Q) Looking for the measured Kd of Nc1ncnc2c1ncn2[C@@H]1O[C@H](COP(=O)(O)O)[C@@H](O)[C@H]1O [AMP] , can you help?
A) 14.4 µM

---

# TARGET ENTITY: Lyngbya sp. LynD heterocyclase, wild type, SEQ ID NO: 1
# PROTOCOL DETAILS: ITC nucleotide binding (ATP/AMP) to LynD
# Set-up: species or system Lyngbya sp. PCC 8106
# CONDITION DETAILS: 20° C., pH 7.4, 5 mM MgCl2, one-site model, stoichiometry set to 1, read-out: Nucleotide KD (ATP)
OBSERVED PROPERTY: pKd
Scale explanation: pKd corresponds to minus log10 of a concentration expressed in moles per litre.

Q) Given Nc1ncnc2c1ncn2[C@@H]1O[C@H](COP(=O)(O)OP(=O)(O)OP(=O)(O)O)[C@@H](O)[C@H]1O [ATP] , state its recorded pKd.
A) 4.30

---

# TARGET ENTITY: Lyngbya sp. LynD heterocyclase (SEQ ID NO: 1) variant R427E
# PROTOCOL DETAILS: ITC nucleotide binding (ATP/AMP) to LynD R427E
# CONDITION DETAILS: 25° C., pH 7.4, 5 mM MgCl2
OBSERVED PROPERTY: Kd

Q) Notebook: pull reported Kd for Lyngbya sp. LynD heterocyclase (SEQ ID NO: 1) variant R427E, entry Nc1ncnc2c1ncn2[C@@H]1O[C@H](COP(=O)(O)O)[C@@H](O)[C@H]1O [AMP]
A) 23 µM
